Entries and their z-score
test: P. aeruginosa biofilm formation inhibitors, primary screen, strain PAO1, LB-PBS medium, absorbance 600 nm (AID 1176); note: test concentration not given here; conditions: P. aeruginosa PAO1 growth/biofilm, A600, 12 h; higher = more signal
# print the numeric value only

A selection of reference data follows.
Smiles code	z-score
COCC(=C=CC[C@@H](O)c1cccc(OCCO)c1)C[C@@H](O)COCc1ccccc1	0.13
CCCCCCc1nc(-c2ccc(OC)nc2)cc2c1[Si](C(C)C)(C(C)C)OC2	-0.0391

Proceed to the following item.
Prompt line: Could you tell me which z-score is on file for "CC(C)C[C@@H]1NC(=O)[C@H]2C[C@@H](C(=O)NCCCCCCNC(=O)CS)[C@@H](c3ccc(O)cc3)N2C1=O" ?
Response line: 0.932
